target: Delta-type opioid receptor (Mus musculus); experiment: In vitro inhibitory activity was determined against Opioid receptor delta 1 in mouse vas deferens
Sequence (P32300 whole entry): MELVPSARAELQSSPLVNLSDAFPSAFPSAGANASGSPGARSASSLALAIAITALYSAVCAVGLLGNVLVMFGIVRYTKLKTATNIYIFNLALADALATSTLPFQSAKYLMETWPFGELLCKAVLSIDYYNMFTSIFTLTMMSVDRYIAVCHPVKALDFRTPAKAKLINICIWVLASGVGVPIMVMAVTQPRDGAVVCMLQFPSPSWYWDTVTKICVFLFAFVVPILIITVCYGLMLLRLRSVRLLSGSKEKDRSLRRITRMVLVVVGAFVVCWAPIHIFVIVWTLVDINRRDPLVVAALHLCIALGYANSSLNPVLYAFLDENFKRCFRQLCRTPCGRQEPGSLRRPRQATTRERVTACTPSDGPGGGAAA
READOUT_NAME: pIC50
Give bare numbers, as −log10 of the molar value.

// worked examples, pIC50 included
Cc1cccc(C)c1C[C@@H](NC(=O)CNC(=O)CNC(=O)[C@@H](N)Cc1ccc(O)cc1)C(=O)N[C@@H](CC(C)C)C(=O)O: 6.20
Cc1cc(O)cc(C)c1C[C@H](N)C(=O)NCC(=O)NCC(=O)N[C@H](Cc1c(C)cccc1C)C(=O)N[C@@H](CC(C)C)C(=O)O: 8.84

Given the entry `Cc1cc(O)cc(C)c1C[C@H](N)C(=O)NCC(=O)NCC(=O)N[C@@H](Cc1ccccc1)C(=O)N[C@@H](CC(C)C)C(=O)O` , report its measured pIC50.
9.77
